Measured TGI accompanies every entry in the list below.
Test system: NCI-H522 lung
assayOverview: NCI tumour cell line growth inhibition, 48 h
Numeric only. Scale: µM

# annotated cases, reported TGI shown
The value of TGI measured for the molecule COc1cc2c(c(OC)c1OC)-c1ccc(SC)c(=O)cc1C(CC(=O)Oc1cccc(F)c1)C2 (stereo not drawn) turned out to be 0.241

The value of TGI measured for the molecule Cc1cn2c(/C=N/N=C(N)N)c(-c3ccncc3)nc2s1 turned out to be 59.7

The value of TGI measured for the molecule Cc1ccc(C2C(Cl)C(=O)N2NC(=O)c2ccc(N)cc2)cc1 (stereo not drawn) turned out to be 25.6

The value of TGI measured for the molecule CCOC(=O)C#Cc1c(C(=O)OCC)nnn1[C@@H]1O[C@H](CO)[C@H]2OC3(CCCCC3)O[C@H]21 turned out to be 4.09

The value of TGI measured for the molecule Oc1c(O)c(Cl)c(Cl)c(Cl)c1Cl turned out to be 4.54

The value of TGI measured for the molecule CCC[CH2][Sn]([CH2]CCC)([CH2]CCC)[O]C(=O)C(OC)c1ccccc1 (stereo not drawn) turned out to be 0.212

The value of TGI measured for the molecule CC(C)=C1CCC(CN2CCOCC2)C1=O (stereo not drawn) turned out to be 0.163

The value of TGI measured for the molecule Cc1c(C)c2c(c(C)c1OCC(=O)O)CC[C@@](C)(CCC[C@@H](C)CCC[C@@H](C)CCCC(C)C)O2 turned out to be 154

The value of TGI measured for the molecule c1ccc(C2CC(c3ccc4ccccc4c3)=Nc3ccccc3S2)cc1 (stereo not drawn) turned out to be 33.2

The value of TGI measured for the molecule CCCCN1C(=O)/C(=c2\sc3n(c2=O)C2C(NN=3)N(CC)C(=O)N2CC)c2ccccc21 (stereo not drawn) turned out to be 3.44

Further cases:
The value of TGI measured for the molecule O=C(Nc1ccc2c(c1)OCCO2)C(=O)c1c[nH]c2ccccc12 turned out to be 16.3

The value of TGI measured for the molecule COc1cc(-c2cc3ncccc3c3[nH]c(=O)c4cccnc4c23)cc(OC)c1OC turned out to be 82.5

---

Measured TGI accompanies every entry in the list below.
Tested on: MALME-3M melanoma
assayOverview: NCI tumour cell line growth inhibition, 48 h
Where a SMILES comes first, the peptide text is derived from it. The star is where a group is joined. OSu = O=C1CCC(=O)N1O*

Field TGI (system: MALME-3M melanoma) for entry O=C(NCc1ccc2ccc3cccnc3c2n1)c1ccc[n+](Cc2ccccc2)c1 = > 100 µM

Field TGI (system: MALME-3M melanoma) for entry CCOC(=O)C#Cc1c(C(=O)OCC)nnn1[C@@H]1O[C@H](CO)[C@H]2OC3(CCCCC3)O[C@H]21 = 3.76 µM

Field TGI (system: MALME-3M melanoma) for entry NCCCCC(NC(=O)C(N)Cc1ccc(O)cc1)C(=O)NC(Cc1ccc(O)cc1)C(=O)NC(CCCCN)C(=O)ON1C(=O)CCC1=O (centres undefined) (H-YKYK-OSu; configuration not given here) = > 100 µM

Field TGI (system: MALME-3M melanoma) for entry N#Cc1c(-c2ccccc2)cc(Nc2ccc(Cl)cc2)n2c1nc1ccccc12 = > 100 µM

Field TGI (system: MALME-3M melanoma) for entry O=C([CH-]C(=O)c1ccccc1)c1ccccc1.O=C([CH-]C(=O)c1ccccc1)c1ccccc1.O=C([CH-]C(=O)c1ccccc1)c1ccccc1.[Cl-].[Zr+4] = 60.4 µM

Field TGI (system: MALME-3M melanoma) for entry CNCCCNc1c2ccccc2nc2cccc([N+](=O)[O-])c12 = 0.00997 µM

Field TGI (system: MALME-3M melanoma) for entry O=C(O)c1ccc(Nc2nc3nn(Cc4ccccc4)cc3c(=O)s2)cc1 = > 100 µM

Field TGI (system: MALME-3M melanoma) for entry COc1cc(S(=O)(=O)Nc2ccc(-c3csc(N4C(=O)C(Cl)C4c4cccs4)n3)cc2)ccc1Cl (centres undefined) = > 100 µM

Please find the next compound below.
Field TGI (system: MALME-3M melanoma) for entry COC(=O)CCC(=O)N1CC1C (centres undefined) = > 100 µM

---

Tested on: UACC-62 melanoma
assayOverview: NCI tumour cell line growth inhibition, 48 h; in the data active = GI50 below about 0.43 µM; inactive = the rest
Outcomes you can answer with include only these: active, inactive

Illustrative cases are given below, each with its answer.
Asked: Answer briefly: the call reported for CN1CCN(CCCOc2cccc3nc(Nc4ccc(F)c(F)c4)ccc23)CC1 in this assay.
Given back: inactive

Asked: Answer briefly: the call reported for CN(C)CCCCCNc1c2ccccc2nc2cccc([N+](=O)[O-])c12 in this assay.
Given back: active

Asked: Answer briefly: the call reported for CCN(CC)c1ccc(/C=N/NC(=O)CSc2nc3ccccc3c(=O)n2Cc2ccc(S(N)(=O)=O)cc2)c(O)c1 in this assay.
Given back: inactive

Asked: Answer briefly: the call reported for COc1cc(-c2nccc3cc4c(cc23)OCO4)cc(OC)c1OC in this assay.
Given back: inactive

Asked: Answer briefly: the call reported for COc1ccc2c(c1)O/C(=C\c1cccc(OCC(=O)Nc3nc(C)c(C)s3)c1)C2=O in this assay.
Given back: inactive

Asked: Answer briefly: the call reported for CC/C(Cc1ccccc1)=C(/c1ccc(O)cc1)c1ccc(OCCN2CCCC2)cc1 in this assay.
Given back: inactive

Further cases:
Asked: Answer briefly: the call reported for Cn1cncc1-c1c(F)cncc1NC(=O)c1c(N)nn2cc(F)cnc12 in this assay.
Given back: inactive

Asked: Answer briefly: the call reported for Cc1cn2c(/C=N/N=C(N)N)c(-c3ccncc3)nc2s1 in this assay.
Given back: inactive

Asked: Answer briefly: the call reported for COc1cc(Nc2ncnc(Nc3ccc4c(n3)NC(=O)C(C)(C)O4)n2)cc(OC)c1OC in this assay.
Given back: inactive

Asked: Answer briefly: the call reported for CCCCN1C(=O)/C(=c2\sc3n(c2=O)C2C(NN=3)N(CC)C(=O)N2CC)c2ccccc21 (centres undefined) in this assay.
Given back: inactive

Asked: Answer briefly: the call reported for Cc1noc(C)c1-c1cnc2c(-c3ccc(C(=O)O)cc3)cn([C@@H](C)c3ccccn3)c2c1 in this assay.
Given back: active

Asked: Answer briefly: the call reported for COc1ccc2nc3cccc([N+](=O)[O-])c3c(NCCNCCN(C)C)c2c1 in this assay.
Given back: active

Asked: Answer briefly: the call reported for COc1cccc(NC(=O)c2sc3nc4c(cc3c2N)C(O)CCC4)c1 (centres undefined) in this assay.
Given back: active

Asked: Answer briefly: the call reported for C[C@H](NC(=O)c1c(C(F)F)nn(C)c1Oc1cccc(C(F)(F)F)c1)c1ccc(C(=O)O)cc1 in this assay.
Given back: inactive

---

System: SK-MEL-5 melanoma
assayOverview: NCI tumour cell line growth inhibition, 48 h; in the data active = GI50 below about 0.43 µM; inactive = the rest
Outcomes you can answer with include only these: active, inactive

Illustrative cases are given below, each with its answer.
Asked: Answer briefly: the call reported for COc1cc(-c2cc3ncccc3c3[nH]c(=O)c4cccnc4c23)cc(OC)c1OC in this assay.
Given back: inactive

Asked: Answer briefly: the call reported for CCN(CC)c1ccc(/C=N/NC(=O)CSc2nc3ccccc3c(=O)n2Cc2ccc(S(N)(=O)=O)cc2)c(O)c1 in this assay.
Given back: inactive

Asked: Answer briefly: the call reported for Cc1cn2c(/C=N/N=C(N)N)c(-c3ccncc3)nc2s1 in this assay.
Given back: inactive

Further cases:
Asked: Answer briefly: the call reported for CCC[CH2][Sn]([CH2]CCC)([CH2]CCC)[O]C(=O)C(OC)c1ccccc1 (stereo unspecified) in this assay.
Given back: active

Asked: Answer briefly: the call reported for Cn1cc(C2=C(c3ccccc3C(F)(F)F)C(=O)NC2=O)c2ccccc21 in this assay.
Given back: inactive

Asked: Answer briefly: the call reported for NC(CSC(c1ccccc1)(c1ccccc1)c1ccc(F)cc1)C(=O)O (stereo unspecified) in this assay.
Given back: active

Asked: Answer briefly: the call reported for CCOC(=O)C#Cc1c(C(=O)OCC)nnn1[C@@H]1O[C@H](CO)[C@H]2OC3(CCCCC3)O[C@H]21 in this assay.
Given back: inactive

Asked: Answer briefly: the call reported for c1cc[c]([Sn]([O]c2cccc3cccnc23)([O]c2cccc3cccnc23)[c]2ccccc2)cc1 in this assay.
Given back: active

Asked: Answer briefly: the call reported for CC(=O)O[C@H](C[C@H](C(C)C)N(C)C(=O)[C@@H](NC(=O)[C@H]1CCCCN1C)C(C)C)c1cccc(C(=O)N[C@@H](Cc2ccccc2)C[C@H](C)C(=O)O)n1 in this assay.
Given back: active

Asked: Answer briefly: the call reported for O=C(CN(/C=C/C(=O)C(F)(F)F)c1ccccc1)c1ccc(Cl)cc1 in this assay.
Given back: inactive

---

System: IGROV1 ovarian
assayOverview: NCI tumour cell line growth inhibition, 48 h
Measured TGI accompanies every entry in the list below.

The value of TGI measured for the molecule CC(CC[C@@]1(O)OC2C[C@H]3[C@@H]4CC[C@H]5CC(OC6OC(CO)C(OC7OC(CO)C(O)C(OC8OCC(O)C(O)C8O)C7OC7OC(CO)C(O)C(O)C7O)C(O)C6O)[C@H](O)CC5(C)[C@H]4CCC3(C)C2[C@@H]1C)COC1OC(CO)C(O)C(O)C1O (stereo partly specified) turned out to be > 50 µM

The value of TGI measured for the molecule Cc1cc(C)nc(NS(=O)(=O)c2ccc(NC(=O)c3cc([N+](=O)[O-])cc([N+](=O)[O-])c3)cc2)n1 turned out to be > 100 µM

The value of TGI measured for the molecule Nc1ccc(-c2ccc3ncc4ccc(=O)n(-c5cccc(C(F)(F)F)c5)c4c3c2)cn1 turned out to be 0.314 µM

Further cases:
The value of TGI measured for the molecule CCOC(=O)/C=C(/C(=O)OCC)n1ccc(=O)n(Cc2cnnn2CCCCOC(C)=O)c1=O turned out to be > 100 µM

The value of TGI measured for the molecule O=C(NCc1ccc2ccc3cccnc3c2n1)c1ccc[n+](Cc2ccccc2)c1 turned out to be > 100 µM

The value of TGI measured for the molecule O=C(CN(/C=C/C(=O)C(F)(F)F)c1ccccc1)c1ccc(Cl)cc1 turned out to be 43.8 µM
